I'd appreciate it if you could supply Kd values for the items below.
- tgt: T1, human IGF2^1-67 (mature insulin-like growth factor 2) (human, UniProt P01344 25-91, biotinylated (site not stated) where immobilised on the chip (Tables 1-4))
- T1 construct: mature; also called mature IGF2; biotinylated IGF2
- assay: SPR steady state, biotin-IGF2 on chip, pH 7.4

Worked examples, 3 binders total:
binder: IGF2R domain 11^WT (receptor, Soluble His6-tagged domain 11 from P. pastoris and/or E. coli; also called wild-type domain 11) MKSNEHDDCQVTNPSTGHLFDLSSLSGRAGFTAAYSEKGLVYMSICGENENCPPGVGACFGQTRISVGKANKRLRYVDQVLQLVYKDGSPCPSKSGLSYKSVISFVCRPEAGPTNRPMLISLDKQTCTLFFSWHTPLACEQATECSV
Kd: 64 nM
//
binder: domain 11^AB5 W1546F (receptor, See m5) MKSNEHDDCQVTNPSTGHLFDLSSLSGRAGFTAAYAKGFGVYMSICGENENCPPGVGACFGQTRISVGKANKRLRYVDQVLQLVYKDGSPCPSKSGLSYKSVISFVCRPEAGPTNRPMLISLDKQTCTLFFSWHTPLACEQATECSV
Kd: 5 nM
//
binder: domain 11^AB5 S1600N (receptor, See m5) MKSNEHDDCQVTNPSTGHLFDLSSLSGRAGFTAAYAKGWGVYMSICGENENCPPGVGACFGQTRISVGKANKRLRYVDQVLQLVYKDGSPCPNKSGLSYKSVISFVCRPEAGPTNRPMLISLDKQTCTLFFSWHTPLACEQATECSV
Kd: 29.7 nM

As a next step, examine the binder that follows.
Which value of Kd has been reported for domain 11^AB5 K1601A (receptor, See m5) MKSNEHDDCQVTNPSTGHLFDLSSLSGRAGFTAAYAKGWGVYMSICGENENCPPGVGACFGQTRISVGKANKRLRYVDQVLQLVYKDGSPCPSASGLSYKSVISFVCRPEAGPTNRPMLISLDKQTCTLFFSWHTPLACEQATECSV in the records?
8.51 nM
